- assayed-target: PRMT5 (Homo sapiens)
- Construct: purchased Viva (custom protein)
- assay-details: PRMT5 biochemical IC50 assay with MTA as cofactor
- conditions-used: PRMT5, MTA as cofactor; read-out: MTA IC50
observation-type: IC50

Solved cases below.
Cc1cc(NC(=O)C(=O)N2C[C@H](C)CC[C@H]2c2ccc3c(c2)CCCN3)cnc1N (single isomer, unassigned)	< 50 nM
Cc1cc(NC(=O)C(=O)N2C[C@H](C)C(F)(F)C[C@H]2c2cccc3[nH]ncc23)cnc1N (single isomer, unassigned)	< 50 nM
Cc1cc(NC(=O)C(=O)N2C[C@H](C)CC[C@H]2c2ccc(C(F)F)nc2)cnc1N (single isomer, unassigned)	> 500 nM
Cc1cc(NC(=O)C(=O)N2C[C@H](C)CC[C@H]2c2ccc(C(F)(F)F)nc2)cnc1N (single isomer, unassigned)	> 500 nM
Cc1ccc([C@@H]2CC[C@@H](C)CN2C(=O)C(=O)Nc2cncc(C(N)=O)c2)cc1C (racemic)	< 50 nM
CCc1cc(NC(=O)C(=O)N2C[C@@H](C)CC[C@@H]2c2ccc3sc(CC4(N(C)C)COC4)nc3c2)cnc1N	< 50 nM

Here's the next entry for you.
Query: Which IC50 is listed for C[C@@H]1CC[C@@H](c2ccc(C#N)c(C3CC3)c2)N(C(=O)C(=O)Nc2cncc(C(N)=O)c2)C1 (racemic) ?
Response: < 50 nM

###

- assayed-target: PRMT5 (Homo sapiens)
- Construct: purchased Viva (custom protein)
- assay-details: PRMT5 biochemical IC50 assay with MTA as cofactor
- conditions-used: PRMT5, MTA as cofactor; read-out: MTA IC50
pIC50: −log10 of the molar value.
observation-type: pIC50

Solved cases below.
Cc1ccc([C@H]2CC[C@H](C)CN2C(=O)C(=O)Nc2cncc(C)c2)cc1 (single isomer, unassigned)	< 6.30
CCc1cc(NC(=O)C(=O)N2C[C@@H](C)CC[C@@H]2c2cccc(OC[C@@H]3CCCN3C)c2)cnc1N	> 7.30
Cc1cc(NC(=O)C(=O)N2C[C@H](C)CC[C@H]2c2ccc(NS(C)(=O)=O)cc2)cnc1N (single isomer, unassigned)	> 7.30

Query: // fetch PRMT5 (Homo sapiens) pIC50 for COc1ncc(NC(=O)C(=O)N2C[C@@H](C)CC[C@@H]2c2ccc3sc(C4(CN(C)C)CC4)nc3c2)cc1C(N)=O (single isomer, unassigned)
Response: > 7.30

Query: // fetch PRMT5 (Homo sapiens) pIC50 for Cc1ccc([C@@H]2CC(F)(F)[C@@H](C)CN2C(=O)C(=O)Nc2cnc(N)c(C)c2)cn1 (single isomer, unassigned)
Response: < 6.30

Query: // fetch PRMT5 (Homo sapiens) pIC50 for C[C@@H]1CC[C@@H](c2cnc3[nH]ncc3c2)N(C(=O)C(=O)Nc2cncc(C(N)=O)c2)C1 (single isomer, unassigned)
Response: < 6.30

Query: // fetch PRMT5 (Homo sapiens) pIC50 for CC1(C)CCCC2CN(C(=O)C(=O)Nc3cncc(C(N)=O)c3)CCC21 (racemic)
Response: > 7.30

###

- assayed-target: PRMT5 (Homo sapiens)
- Construct: purchased Viva (custom protein)
- assay-details: PRMT5 biochemical IC50 assay with no cofactor
- conditions-used: PRMT5, no cofactor; read-out: No Cofactor/ rel IC50
observation-type: IC50

Cc1cc(NC(=O)C(=O)N2C[C@@H]3CC[C@@H](C3)[C@@H]2c2cccs2)cnc1N (single isomer, unassigned)	0.05 to 0.5 µM

Query: // fetch PRMT5 (Homo sapiens) IC50 for Cc1ccc([C@@H]2CC[C@@H](C)CN2C(=O)C(=O)Nc2cncc(C)c2)cc1 (single isomer, unassigned)
Response: > 0.5 µM

Query: // fetch PRMT5 (Homo sapiens) IC50 for CCc1cc(NC(=O)C(=O)N2C[C@@H](C)CC[C@@H]2c2ccc3sc(C4CCN(C)CC4C)nc3c2)cnc1N (some centres unmarked)
Response: < 0.05 µM

Query: // fetch PRMT5 (Homo sapiens) IC50 for Cc1cncc(NC(=O)C(=O)N2C[C@H](C)CC[C@H]2c2ccc3ccccc3c2)c1 (racemic)
Response: > 0.5 µM

Query: // fetch PRMT5 (Homo sapiens) IC50 for Cc1cncc(NC(=O)C(=O)N2CC(C)CC[C@@H]2c2cccc(F)c2)c1 (single isomer, unassigned)
Response: > 0.5 µM

###

- assayed-target: PRMT5 (Homo sapiens, UniProt O14744)
- Construct: purchased Viva (custom protein)
- Sequence (O14744 whole entry): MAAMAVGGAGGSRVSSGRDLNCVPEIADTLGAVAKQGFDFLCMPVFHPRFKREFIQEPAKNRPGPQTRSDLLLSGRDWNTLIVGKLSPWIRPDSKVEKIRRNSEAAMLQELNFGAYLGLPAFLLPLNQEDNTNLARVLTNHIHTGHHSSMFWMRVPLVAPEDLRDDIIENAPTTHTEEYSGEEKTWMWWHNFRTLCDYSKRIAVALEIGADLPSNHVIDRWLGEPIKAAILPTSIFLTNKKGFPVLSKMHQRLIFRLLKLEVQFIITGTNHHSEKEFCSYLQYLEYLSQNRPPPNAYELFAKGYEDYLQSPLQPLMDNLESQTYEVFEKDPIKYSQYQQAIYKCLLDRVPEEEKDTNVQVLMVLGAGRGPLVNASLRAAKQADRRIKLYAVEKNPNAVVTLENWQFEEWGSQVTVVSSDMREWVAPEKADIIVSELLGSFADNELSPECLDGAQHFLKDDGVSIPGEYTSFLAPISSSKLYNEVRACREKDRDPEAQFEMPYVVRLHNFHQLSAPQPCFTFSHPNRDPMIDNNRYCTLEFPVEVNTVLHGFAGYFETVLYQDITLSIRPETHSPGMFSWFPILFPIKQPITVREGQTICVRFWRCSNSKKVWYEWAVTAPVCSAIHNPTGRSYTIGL
- Sequence (Q9BQA1 whole entry partner): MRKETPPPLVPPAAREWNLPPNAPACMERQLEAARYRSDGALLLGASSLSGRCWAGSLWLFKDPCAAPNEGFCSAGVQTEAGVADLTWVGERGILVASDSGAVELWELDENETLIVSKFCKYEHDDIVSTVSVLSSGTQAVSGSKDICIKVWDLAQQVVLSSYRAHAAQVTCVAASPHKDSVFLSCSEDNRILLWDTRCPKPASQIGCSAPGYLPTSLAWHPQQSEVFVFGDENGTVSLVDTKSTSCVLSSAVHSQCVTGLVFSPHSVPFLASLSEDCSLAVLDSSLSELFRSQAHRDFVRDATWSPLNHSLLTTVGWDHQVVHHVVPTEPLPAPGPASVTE
- assay-details: PRMT5 biochemical IC50 assay with SAM as cofactor
- conditions-used: PRMT5, SAM as cofactor; read-out: SAM IC50
IC50 by entry:

Solved cases below.
C[C@@H]1CC[C@@H](c2ccc(C#N)cc2)N(C(=O)C(=O)Nc2cncc(C(N)=O)c2)C1 (racemic) [Compound 246]	50 to 500 nM
NC(=O)c1cncc(NC(=O)C(=O)N2C[C@@H](CO)CC[C@H]2c2ccccc2)c1 (racemic) [Compound 285]	> 500 nM
Cc1cc(NC(=O)C(=O)N2CCC(C(=O)C(C)C)C[C@H]2c2ccc3c(c2)CCC(=O)N3)cnc1N (mixture of isomers) [Compound 854]	50 to 500 nM

Here's the next entry for you.
Query: // fetch PRMT5 (Homo sapiens, UniProt O14744) IC50 for CCc1cc(NC(=O)C(=O)N2C[C@@H](C)CC[C@@H]2c2ccc3sc(CN(CC)C(C)C)nc3c2)cnc1N [Compound 1380]
Response: 50 to 500 nM

###

- assayed-target: PRMT5 (Homo sapiens, UniProt O14744)
- Construct: purchased Viva (custom protein)
- assay-details: PRMT5 biochemical IC50 assay with SAM as cofactor
- conditions-used: PRMT5, SAM as cofactor; read-out: SAM IC50
observation-type: IC50

COc1ccc([C@@H]2CC[C@@H](C)CN2C(=O)C(=O)Nc2cncc(C(N)=O)c2)cc1OC (racemic) [Compound 230]	50 to 500 nM

Query: // fetch PRMT5 (Homo sapiens, UniProt O14744) IC50 for CCc1cc(NC(=O)C(=O)N2C[C@@H](C)CC[C@@H]2c2ccn(-c3cc[nH]n3)n2)cnc1N (single isomer, unassigned) [Compound 913]
Response: > 500 nM

Query: // fetch PRMT5 (Homo sapiens, UniProt O14744) IC50 for CCc1cc(NC(=O)C(=O)N2C[C@@H](C)CC[C@@H]2c2ccc3sc(C4CCN(C)C(=O)C4)nc3c2)cnc1N (mixture of isomers) [Compound 1110]
Response: 50 to 500 nM

Query: // fetch PRMT5 (Homo sapiens, UniProt O14744) IC50 for C[C@@H]1CC[C@@H](c2cc(F)cc(F)c2)N(C(=O)C(=O)Nc2cncc(C(N)=O)c2)C1 (racemic) [Compound 416]
Response: 50 to 500 nM

Query: // fetch PRMT5 (Homo sapiens, UniProt O14744) IC50 for Cc1cccc(C2CCCCN2C(=O)C(=O)Nc2cnc(N)c(C)c2)c1 (racemic) [Compound 31]
Response: 50 to 500 nM

Query: // fetch PRMT5 (Homo sapiens, UniProt O14744) IC50 for CNS(=O)(=O)c1ccc([C@H]2CC[C@H](C)CN2C(=O)C(=O)Nc2cncc(C(N)=O)c2)cc1 (single isomer, unassigned) [Compound 722]
Response: 50 to 500 nM

###

- Tested on: HAP1 MTAP-deleted cell line
- assay-details: SDMA in-cell western assay, HAP1 MTAP-deleted
- Assay type: cell-based
- conditions-used: Homo sapiens, HAP1, SDMA in-cell western, HAP1 MTAP-deleted; read-out: HAP 1 MTAP deleted IC50
pIC50: −log10 of the molar value.
pIC50 by entry:

C[C@H]1CC[C@H](c2cnc3[nH]ncc3c2)N(C(=O)C(=O)Nc2cncc(C(N)=O)c2)C1 (single isomer, unassigned)	< 6.00
Cc1cccc(C2CCCCN2C(=O)C(=O)Nc2cnc(N)c(C)c2)c1 (racemic)	6.00 to 7.00
C[C@H]1CC[C@H](c2ccc3sc(CCN4CCCC4)nc3c2)N(C(=O)C(=O)Nc2cnc(N)c(C3COC3)c2)C1	> 7.00
C[C@H]1CC[C@H](c2ccc(-c3cc[nH]n3)cc2)N(C(=O)C(=O)Nc2cncc(C(N)=O)c2)C1 (single isomer, unassigned)	> 7.00

Here's the next entry for you.
Query: // fetch HAP1 MTAP-deleted cell line pIC50 for Cc1cc(NC(=O)C(=O)N2C[C@H](C)CC[C@H]2c2ccc(S(N)(=O)=O)cc2)cnc1N (racemic)
Response: 6.00 to 7.00

###

IC50 by entry:
- assayed-target: PRMT5 (Homo sapiens, UniProt O14744)
- Construct: purchased Viva (custom protein)
- assay-details: PRMT5 biochemical IC50 assay with MTA as cofactor
- conditions-used: PRMT5, MTA as cofactor; read-out: MTA IC50

Solved cases below.
Cc1cc([C@@H]2CC[C@@H](C)CN2C(=O)C(=O)Nc2cncc(C(N)=O)c2)ccn1 (single isomer, unassigned)	> 500 nM
COc1ncc(NC(=O)C(=O)N2C[C@@H](C)CC[C@@H]2c2cnc3[nH]ncc3c2)cc1C(N)=O (single isomer, unassigned)	> 500 nM
Cc1cc(NC(=O)C(=O)N2C[C@@H](C)CC[C@@H]2C23CC(C(N)=O)(C2)C3)cnc1N (single isomer, unassigned)	> 500 nM
C[C@@H]1CC[C@@H](c2csc3ccccc23)N(C(=O)C(=O)Nc2cncc(C(N)=O)c2)C1 (single isomer, unassigned)	< 50 nM
CCc1cc(NC(=O)C(=O)N2C[C@@H](C)CC[C@@H]2c2cccc(OC[C@H]3CCN(C)C3)c2)cnc1N	< 50 nM

Here's the next entry for you.
Query: Which IC50 is listed for CNS(=O)(=O)c1ccc([C@@H]2CC[C@@H](C)CN2C(=O)C(=O)Nc2cncc(C(N)=O)c2)cc1 (racemic) [Compound 652] ?
Response: 50 to 500 nM

Recorded values, source patent US11999727B2.
